# Target system: human plasma kallikrein (human, UniProt P03952 20-638)
# Sequence (P03952 20-638): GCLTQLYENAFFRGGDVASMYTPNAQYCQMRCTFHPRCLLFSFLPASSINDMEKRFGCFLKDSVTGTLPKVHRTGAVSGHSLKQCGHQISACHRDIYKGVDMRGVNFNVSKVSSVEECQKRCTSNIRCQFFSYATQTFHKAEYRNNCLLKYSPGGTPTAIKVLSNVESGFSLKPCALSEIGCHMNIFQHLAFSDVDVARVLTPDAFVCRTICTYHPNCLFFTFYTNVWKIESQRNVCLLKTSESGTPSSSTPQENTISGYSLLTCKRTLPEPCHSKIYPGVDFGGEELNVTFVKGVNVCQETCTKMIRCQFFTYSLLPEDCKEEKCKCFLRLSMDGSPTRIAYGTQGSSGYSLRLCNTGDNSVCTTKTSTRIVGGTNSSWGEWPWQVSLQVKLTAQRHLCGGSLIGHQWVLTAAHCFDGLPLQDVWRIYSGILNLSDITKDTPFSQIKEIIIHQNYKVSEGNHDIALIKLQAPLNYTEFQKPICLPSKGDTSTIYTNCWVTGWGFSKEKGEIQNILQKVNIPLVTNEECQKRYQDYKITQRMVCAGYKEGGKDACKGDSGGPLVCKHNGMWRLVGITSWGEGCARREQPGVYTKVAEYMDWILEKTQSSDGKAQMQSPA
# Method: enzyme inhibition
pKi: −log10 of the molar value.
Label scheme for pKi: lower than 8 is 0, 8 and above is 1.

These solved cases illustrate the format of a correct answer.
DD113 (protein) EVVREVCSEQAETGPCRALIPRWYFDVTEGKCAPFFYGGCGGNRNNFDTEEYCMAVCGSAI ... 1
TW6203 (protein) EVVREVCSEQAETGPCRAGIPRWYFDVTEGKCAPFFYGGCGGNRNNFDTEEYCMAVCGSAI ... 0
DD114 (protein) EVVREVCSEQAETGPCRAAISRWYFDVTEGKCAPFFYGGCRGNRNNFDTEEYCMAVCGSAI ... 1

Incoming: Identify whether the reported pKi of the following binder is 8 or greater: TW6190 (protein) EVVREVCSEQAETGPCRAAISRWYFDVTEGKCAPFFYGGCYGNRNNFDTEEYCMAVCGSAI
Outgoing: 1

Incoming: Hi team, for TW6201 (protein) EVVREVCSEQAETGPCRAGIYRWYFDVTEGKCAPFFYGGCGGNRNNFDTEEYCMAVCGSAI , is the recorded pKi at or above 8?
Outgoing: 0

Incoming: pKi >= 8 for TW6202 (protein) EVVREVCSEQAETGPCRAGIWRWYFDVTEGKCAPFFYGGCGGNRNNFDTEEYCMAVCGSAI ?
Outgoing: 0

Incoming: For this binder, is measured pKi 8 or higher? TW6169 (protein) EVVREVCSEQAETGPCRALILRWYFDVTEGKCAPFFYGGCGGNRNNFDTEEYCMAVCGSAI
Outgoing: 1

Incoming: Does the reported pKi for BG003 (protein) EVVREVCSEQAETGPCRAMLHRWYFDVTEGKCAPFFYGGCGGNRNNFDTEEYCMAVCGSAI fall at or above the 8 mark?
Outgoing: 0

Source of measurements: patent US6906033
